opiate receptors (Rattus norvegicus): reported IC50 for various compounds.
Sequence (P33535 whole entry): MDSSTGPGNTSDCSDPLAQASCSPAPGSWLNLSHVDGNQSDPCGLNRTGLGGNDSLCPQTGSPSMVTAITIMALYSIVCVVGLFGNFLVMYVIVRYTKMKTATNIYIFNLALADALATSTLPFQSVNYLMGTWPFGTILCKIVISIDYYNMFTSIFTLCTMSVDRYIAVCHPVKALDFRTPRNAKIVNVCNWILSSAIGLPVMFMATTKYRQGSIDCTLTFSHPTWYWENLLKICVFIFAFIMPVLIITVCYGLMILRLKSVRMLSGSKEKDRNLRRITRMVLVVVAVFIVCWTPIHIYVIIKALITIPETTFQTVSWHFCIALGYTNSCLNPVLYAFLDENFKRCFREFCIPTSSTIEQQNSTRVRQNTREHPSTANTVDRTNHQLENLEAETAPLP
// note: answer is a bare numeric in nM

compound | target or test system | parameter measured | unit abbreviation | reported value
NN=C1CCC2(O)C3Cc4ccc(O)c5c4C2(CCN3CC2CC2)C1O5 (centres unmarked) [Naltrexazone, naltrexazone] | opiate receptors (Rattus norvegicus) | IC50 | nM | 1.7

// query Provide value of IC50 for this record tested with opiate receptors (Rattus norvegicus): Oc1ccc2c3c1OC1C(=NN=C4CCC5(O)C6Cc7ccc(O)c8c7C5(CCN6CC5CC5)C4O8)CCC4(O)C(C2)N(CC2CC2)CCC314 (centres unmarked) [Naltrexonazine, naltrexonazine]
// result 1.16
